- experiment: Physical state of alkanediols and alkanediol mixtures at RTP
- Format: physicochemical
- experimentalContext: at RTP (room temperature, normal pressure); FIG. 3 and FIG. 4
measurementKind: Physical state

Study these solved cases before continuing.
Task: Could you share which Physical state value was measured for CCCC(O)CO (stereo not shown) [1,2-pentanediol] ?
Output: liquid

Task: Could you share which Physical state value was measured for CCCCCCCCC(O)C(C)O (stereo not shown) [2,3-undecanediol] ?
Output: liquid

Task: Could you share which Physical state value was measured for CCCCC(O)CO (stereo not shown) [1,2-hexanediol] ?
Output: liquid

Task: Could you share which Physical state value was measured for CCCCCCCC(O)CO (stereo not shown) [1,2-nonanediol] ?
Output: solid

Task: Could you share which Physical state value was measured for CCCCC(O)C(C)O (stereo not shown) [2,3-heptanediol] ?
Output: liquid

***
Task: Could you share which Physical state value was measured for CCCCCC(O)CO (stereo not shown) [1,2-heptanediol] ?
Output: liquid

Task: Could you share which Physical state value was measured for CCCCCCC(O)C(C)O (stereo not shown) [2,3-nonanediol] ?
Output: liquid

Task: Could you share which Physical state value was measured for CCCCCC(O)C(C)O (stereo not shown) [2,3-octanediol] ?
Output: liquid

Task: Could you share which Physical state value was measured for CCCCCCC(O)CO (stereo not shown) [1,2-octanediol] ?
Output: solid

Task: Could you share which Physical state value was measured for CCCCCCCCCC(O)CO (stereo not shown) [1,2-undecanediol] ?
Output: solid
